Test: Half life was determined
Type: ADME
Conditions: rat
Experimental Endpoint: half-life (min)
Give a bare numeral; the unit min is implied.

// half-life lookup, compound = N#Cc1ccc(NCCNCC(=O)N2CCC[C@H]2C#N)nc1 , result: 50
